Test Summary: Microsomal stability assay, rat
Format: in vitro ADME
Experimental Parameters: metabolic stability, rat liver microsomes 0.5 mg/mL, substrate 3 uM
Measured Quantity: MS Rat THalf (min)

O=c1c2cc(-c3ccc(OC(F)(F)F)cc3)ccc2nnn1CC1(COc2ncccn2)CC1 : 34
O=c1c2cc(-c3ccc(OC(F)(F)F)cc3)ccc2nnn1Cc1nnc(C2CC2)s1 : 181
O=C1c2cc(-c3ccc(OC(F)(F)F)cc3)ccc2CCN1Cc1ccccn1 : 106
Cc1noc(Cn2ncc3ccc(-c4ccc(OC(F)(F)F)cc4)cc3c2=O)n1 : 222
Cc1noc(Cn2nnc3ccc(-c4ccc(Oc5ccc(Cl)cc5)cc4)cc3c2=O)n1 : 102

a. O=C(NCc1ncccn1)N1CCc2ccc(-c3ccc(C(F)(F)F)cc3)cc2C1
b. O=c1c2cc(-c3ccc(OC(F)(F)F)cc3)ccc2nnn1CCc1ccccn1
**Query** // max by MS Rat THalf over [ a , b ] Use the label to indicate which entry you chose.
**Result** a
(a: 192 min, b: 19 min)

Data credit: patent US20150329558A1
